Reported Binding to CHO-cTREM2 MFI values for the following binders.
# TEST SYSTEM: T1, cynomolgus TREM2 (cynomolgus, UniProt A0A2K5UY34 49-260)
# T1 construct: also called cynoTREM2; cTREM2
# T1 sequence: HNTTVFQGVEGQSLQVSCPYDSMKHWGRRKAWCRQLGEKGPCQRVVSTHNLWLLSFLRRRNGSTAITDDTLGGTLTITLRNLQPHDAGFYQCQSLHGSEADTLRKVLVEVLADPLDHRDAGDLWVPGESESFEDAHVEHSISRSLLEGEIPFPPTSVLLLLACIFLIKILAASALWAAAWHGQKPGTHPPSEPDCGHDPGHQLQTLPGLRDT
# TEST SUMMARY: MFI on CHO cells over-expressing cynoTREM2-DAP12
Record the value in MFI, omitting the unit from your answer.

Before answering, review these 8 worked examples.
- BINDER: "EOS006162 (antibody, V domains shown) VH: QVQLVQSGAEVKKPGSSVKVSCKASGGTFSSYAISWVRQAPGQGLEWMGGIIPISGTANYAQKFQGRVTITADESTSTAYMELSSLRSEDTAVYYCARTQEYTLFDSWGQGTMVTVSS VL: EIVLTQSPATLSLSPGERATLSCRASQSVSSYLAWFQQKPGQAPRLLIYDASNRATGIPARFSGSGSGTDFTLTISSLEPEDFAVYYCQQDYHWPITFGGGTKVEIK"
  Binding to CHO-cTREM2 MFI / MFI: 17100
- BINDER: "EOS006166 (antibody, V domains shown) VH: EVQLVESGGGLVQPGRSLRLSCTASGFTFGDYAMSWFRQAPGKGLEWVGFIGSKAYGGTTEYTASVKGRFTISRDGSKSIAYLQMNSLKTEDTAVYYCARGKRYSYGYWHPAFDVWGQGTMVTVSS VL: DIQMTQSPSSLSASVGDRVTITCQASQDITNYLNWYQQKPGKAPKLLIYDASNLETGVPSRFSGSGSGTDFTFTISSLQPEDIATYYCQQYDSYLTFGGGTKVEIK"
  Binding to CHO-cTREM2 MFI / MFI: 25500
- BINDER: "EOS006165 (antibody, V domains shown) VH: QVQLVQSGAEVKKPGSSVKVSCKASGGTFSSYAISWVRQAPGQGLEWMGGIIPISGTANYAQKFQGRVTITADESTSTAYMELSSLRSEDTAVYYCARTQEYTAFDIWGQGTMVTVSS VL: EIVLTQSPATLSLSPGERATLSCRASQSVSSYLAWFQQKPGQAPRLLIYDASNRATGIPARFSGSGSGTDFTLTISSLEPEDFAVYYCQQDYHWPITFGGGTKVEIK"
  Binding to CHO-cTREM2 MFI / MFI: 8500
- BINDER: "EOS006177 (antibody, V domains shown) VH: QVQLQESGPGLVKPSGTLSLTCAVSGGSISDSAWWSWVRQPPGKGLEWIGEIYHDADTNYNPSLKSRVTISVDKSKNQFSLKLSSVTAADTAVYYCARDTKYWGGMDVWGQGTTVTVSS VL: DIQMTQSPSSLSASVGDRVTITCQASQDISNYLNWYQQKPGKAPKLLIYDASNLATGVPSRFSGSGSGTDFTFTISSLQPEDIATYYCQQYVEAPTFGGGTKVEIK"
  Binding to CHO-cTREM2 MFI / MFI: 19600
- BINDER: "Ab52 (antibody, V domains shown, benchmark anti-TREM2 antibody from WO2016023019A2) VH: QVQLVQSGAEVKKPGASVKVSCKASGYTFTSYYIHWVRQAPGQGLEWMGIINPSGGSTSYAQKFQGRVTMTRDTSTSTVYMELSSLRSEDTAVYYCAREADDSSGYPLGLDVWGQGTMVTVSS VL: EIVMTQSPATLSVSPGERATLSCRASQSVSSNLAWYQQKPGQAPRLLIYGASTRATGIPARFSGSGSGTEFTLTISSLQSEDFAVYYCQQVNSLPPTFGGGTKVEIK"
  Binding to CHO-cTREM2 MFI / MFI: 25500
- BINDER: "EOS006171 (antibody, V domains shown) VH: QVQLVESGGGLVKPGGSLRLSCAASGFTFSDYYMSWIRQAPGKGLEWVSYISSSGSTIYYADSVKGRFTISRDNAKNSLYLQMNSLRAEDTAVYYCARLGGYYSLGPMDVWGQGTTVTVSS VL: EIVLTQSPATLSLSPGERATLSCRASQSVSSYLAWYQQKPGQAPRLLIYDASNRATGIPARFSGSGSGTDFTLTISSLEPEDFAVYYCQQDSAFPFTFGGGTKVEIK"
  Binding to CHO-cTREM2 MFI / MFI: 13400
- BINDER: "EOS006173 (antibody, V domains shown, also called EOS061730) VH: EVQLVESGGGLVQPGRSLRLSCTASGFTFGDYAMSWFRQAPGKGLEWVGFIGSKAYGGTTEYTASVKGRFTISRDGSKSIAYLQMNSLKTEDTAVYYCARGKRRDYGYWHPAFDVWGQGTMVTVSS VL: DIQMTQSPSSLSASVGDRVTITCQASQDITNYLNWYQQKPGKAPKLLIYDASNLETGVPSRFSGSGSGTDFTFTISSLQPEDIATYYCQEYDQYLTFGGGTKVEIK"
  Binding to CHO-cTREM2 MFI / MFI: 14000
- BINDER: "EOS006164 (antibody, V domains shown) VH: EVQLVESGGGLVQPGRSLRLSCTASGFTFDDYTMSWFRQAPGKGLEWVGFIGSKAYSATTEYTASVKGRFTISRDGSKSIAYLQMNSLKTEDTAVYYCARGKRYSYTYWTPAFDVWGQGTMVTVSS VL: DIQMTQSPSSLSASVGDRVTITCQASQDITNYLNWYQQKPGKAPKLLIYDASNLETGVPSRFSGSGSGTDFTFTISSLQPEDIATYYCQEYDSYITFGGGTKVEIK"
  Binding to CHO-cTREM2 MFI / MFI: 14200

// below: Binding to CHO-cTREM2 MFI requested for another binder
Looking up EOS006163 (antibody, V domains shown) VH: QVQLVQSGAEVKKPGSSVKVSCKASGGTFAQYAISWVRQAPGQGLEWMGVIIPDSGTANYAQKFQGRVTITADESTSTAYMELSSLRSEDTAVYYCARTQENTIFDIWGQGTMVTVSS VL: EIVLTQSPATLSLSPGERATLSCRASQSVSSYLAWFQQKPGQAPRLLIYDASNRATGIPARFSGSGSGTDFTLTISSLEPEDFAVYYCQQDYEWPITFGGGTKVEIK , I found its Binding to CHO-cTREM2 MFI recorded as 17700

Origin of measurements: patent US20250282868A1
